Tested on: J774A.1 cells
Assay: Effect on the viability of J774A.1 cells
Assay type: cell-based, murine
Conditions: fixed prodrug concentration 10 μM, 5 h, versus untreated control
Entries and their measured Viability follow.

| MOLECULE | Viability, % |
| --- | --- |
| CC(C)OC(=O)[C@H](Cc1ccccc1)NP(=O)(COCCc1sc(N)nc1-c1cccc(OCc2ccccc2)c1)N[C@@H](Cc1ccccc1)C(=O)OC(C)C | 103 |
| CC(C)OC(=O)[C@H](Cc1ccccc1)NP(=O)(COCCc1sc(N)nc1-c1cccc(F)c1)N[C@@H](Cc1ccccc1)C(=O)OC(C)C | 110 |
| CCCCOc1cccc(-c2nc(N)sc2CCOCP(=O)(N[C@@H](Cc2ccccc2)C(=O)OC(C)C)N[C@@H](Cc2ccccc2)C(=O)OC(C)C)c1 | 106 |
